- Test Name: solvent given as SMILES
- Setup Conditions: in CO
# thresholds on absorption maximum define classes: low group: < 400 nm; middle group: ≥ 400 nm and < 500 nm; high group: ≥ 500 nm

O=C(O)C1=CC(=C/C=[N+]2/c3cc(O)c(C[C@@H]4O[C@H](CO)[C@@H](O)C(O)[C@H]4O)cc3C[C@H]2C(=O)O)C=C(C(=O)O)N1 (some centres undefined) : middle group
CN1c2ccccc2CCc2ccccc21 : low group
CC1=C(c2cccs2)C(C)=[N+]2C1=C(c1ccccc1)c1c(C)c(-c3cccs3)c(C)n1[B-]2(F)F : high group
COc1ccc(-c2nc(-c3ccccc3)c(-c3ccccc3)[nH]2)cc1 : low group
CCCCCCCCN1c2ccc(C#Cc3ccc(OC)cc3)cc2Sc2cc(C=O)ccc21 : low group

For O=Cc1cc(C=O)c2ccc3c(N4CCCCC4)cc(N4CCCCC4)c4ccc1c2c43 , which absorption maximum bin applies?
high group

Class? Entry: COc1ccc(-n2c3ccccc3c3cc(/C=C/C(=C(C#N)C#N)c4ccccc4)ccc32)cc1
middle group

----------
- Test Name: solvent given as SMILES
- Setup Conditions: in Cc1ccccc1
Below: a set of entries, each annotated with reported absorption maximum.

CCCCOC(=O)c1cc(Cl)c2c3c(Cl)cc4c5c(cc(Cl)c(c6c(Cl)cc(C(=O)OCCCC)c1c26)c53)C(=O)N(c1c(C(C)C)cccc1C(C)C)C4=O : 496 nm
FC(F)(F)c1ccc(-c2c3cccc4c5cccc6c(-c7ccc(C(F)(F)F)cc7)c7cccc8c9cccc2c9c(c34)c(c65)c78)cc1 : 683 nm
Cc1cc(C)n2c1C=C1c3ccccc3C(c3c[nH]c4ccccc34)=[N+]1[B-]2(F)F : 587 nm
CCc1c(C)[nH]c(C2=[N+]3C(=C(C)c4c(C)c(CC)c(C)n4[B-]3(F)F)c3ccccc32)c1C : 625 nm

I would be grateful if you could share the reported absorption maximum for CCCC1=Cc2nc1ccc1[nH]c(cc1CCC)c1nc(c(NC(C)=O)cc3[nH]c2cc3CCC)C(CCC)=C1 .
639 nm

Given COc1ccc(N2c3ccc4ccccc4c3-c3c4ccccc4cc[n+]3[B-]2(c2ccccc2)c2ccccc2)cc1 , state its recorded absorption maximum.
520 nm

Item CN(C)c1ccc(C2=Nc3scc[n+]3[B-](F)(F)O2)cc1 has what recorded absorption maximum?
405 nm

Give its absorption maximum value. Item: F[B-]1(F)n2c(c3cccc4cccc2c43)=Nc2ccc3ccccc3[n+]21
490 nm

----------
Measured absorption maximum of individual entries
- Test Name: solvent given as SMILES
- Setup Conditions: in ClCCl
Reply numerically in nm, unit not repeated.

Example entries and their recorded answers appear below.
CCCCC1C(=O)c2cc(Oc3ccc(C(C)(C)C)cc3)c3c4c(Oc5ccc(C(C)(C)C)cc5)cc5c6c(cc(Oc7ccc(C(C)(C)C)cc7)c(c7c(Oc8ccc(C(C)(C)C)cc8)cc(c2c37)C1=O)c64)C1=C(C5=O)c2ccc3ccccc3[n+]2[B-](F)(F)O1 (stereo not given) : 616
COc1ccc(-c2nc(-c3ccccc3O)c(-c3ccccc3O)n2-c2ccc(C)cc2)cc1 : 304
COc1c2ccccc2c(-c2ccccc2)c2ccccc12 : 378

# absorption maximum lookup, item COC(=O)c1cc(=O)n(Cc2ccccc2)c2cc(-c3ccc(N(C)C)cc3)sc12
436

Would you mind telling me what absorption maximum value was observed for COc1cc(N(c2ccccc2)c2ccc(C=C(C#N)C#N)c(OC)c2)ccc1C=C(C#N)C#N ?
479

Item under review: Clc1ccccc1N1c2sc3ccccc3c2Sc2c1sc1ccccc21 . Reported absorption maximum?
421

Name the recorded absorption maximum for c1ccc(N(c2ccccc2)c2ccc(N(c3ccccc3)c3ccc4ccc5c(N(c6ccccc6)c6ccc(N(c7ccccc7)c7ccccc7)cc6)ccc6ccc3c4c65)cc2)cc1 .
438

Given CCCCC(CC)COc1cc(OCC(CC)CCCC)c2c#cc3ccc4sc5ccc(c#cc6cc(c#cc7ccc8sc9ccc(c#cc1c2)cc9c8c7)c(C(CCCC)OCCC)cc6C(CCCC)OCCC)cc5c4c3 (stereo not given) , state its recorded absorption maximum.
333

// absorption maximum lookup, key: COc1ccc2c3c(OC)c4ccccc4c(OC)c3n(C)c2c1
396

Given CCOC(=O)c1c(-c2c(Cl)c3ccccc3oc2=O)nn(-c2cccc(C)c2)c1C(=O)OCC , state its recorded absorption maximum.
321

What does the record list as absorption maximum for CCOC(=O)c1c(-c2cc3ccccc3oc2=O)nn(-c2ccc(Cl)cc2)c1C(=O)OCC ?
323

I have this molecule here, F[B-]1(F)OC(C#Cc2ccccc2)=CC(c2ccccc2)=[O+]1 , and I need its recorded absorption maximum.
401

Value lookup for absorption maximum; key = CCN(CC)c1ccc2cc(-c3ccc(-c4ccc(-c5cc6ccccc6oc5=O)cc4)cc3)c(=O)oc2c1
409

Reported absorption maximum, molecule CON(OC)c1cc2c3cc(-c4c(C)cc(C)cc4C)cc4c5cc(-c6c(C)cc(C)cc6C)cc6c7cc(B(c8c(C)cc(C)cc8C)c8c(C)cc(C)cc8C)cc8c9cc(-c%10c(C)cc(C)cc%10C)cc%10c%11cc(-c%12c(C)cc(C)cc%12C)cc%12c(c1)c2c1c(c43)c(c65)c(c78)c(c9%10)c1c%11%12 : ____
450

What measured absorption maximum goes with CC(=O)c1c(N[C@H](C(=O)O)C(C)C)c2ccc(N(C)C)cc2oc1=O ?
371

----------
- Test Name: solvent given as SMILES
- Setup Conditions: in ClC(Cl)Cl
Documented absorption maximum across a set of molecules
Respond with the bare value in nm.

CCOC(=O)c1ccc(/C=C/C2=[N+]3C(=C(c4ccccc4)c4ccc(/C=C/c5ccc(C(=O)OCC)o5)n4[B-]3(F)F)C=C2)o1 : 671
CC[n+]1c(/C=C/c2c([O-])ccc3ccc(=O)oc23)sc2ccccc21 : 593.91

I'd like to know its absorption maximum. The molecule in question is CN1c2ccc(C(=O)c3ccccc3)cc2Sc2cc(C(=O)c3ccccc3)ccc21
407

Endpoint output: absorption maximum of C#CCNC1=C2C=CC=[N+]2[B-](F)(F)n2cccc21 . Value?
418

Requested read-out: absorption maximum. Entry: N#Cc1c(C#N)c2cc(Cl)c(Cl)cc2c2cc(Cl)c(Cl)cc12
343

Reported absorption maximum for C[N+]1=c2ccc3c(c2C(C)(C)CC1)Oc1cc2c(cc1C=3c1ccccc1C(=O)O)C(c1ccccc1C(=O)O)=c1ccc3c(c1O2)C(C)(C)CC[N+]=3C : what is it?
617

What value of measured absorption maximum is listed for N#CC1=CC(Br)=CC(C#N)=P1(c1ccccc1)c1ccccc1 ?
482

Reported absorption maximum, molecule O=C(O)c1c2ccccc2nc2ccccc12 : ____
362

For N#Cc1nc(N(Cc2ccccc2I)Cc2ccccc2I)c(C#N)nc1N(Cc1ccccc1I)Cc1ccccc1I , what is its reported absorption maximum?
487

Fill in: absorption maximum of Fc1cccc(C2=Cc3ccc4ccccc4[n+]3[B-](F)(F)O2)c1 is ___
425

GET /values?readout=absorption maximum&item= COc1ccc(O)c(C=O)c1
364

Quick check: absorption maximum of O=C1CC(c2ccc(C(F)(F)F)cc2)c2c(c3ccccc3c3nc4ccccc4nc23)O1 (centres undefined) ?
409

Look up absorption maximum for this molecule: c1ccc(-c2c3c(nc4ccccc24)-c2cc4c(cc2CC3)-c2nc3ccccc3c(-c3ccccc3)c2CC4)cc1
376

Reported absorption maximum, molecule Cc1ccc(/C2=c3\cc/c(o3)=C(\c3ccc(C)cc3)c3ccc([nH]3)-c3ccc4n3[P-](=O)(=O)[N+]3=C(C=CC3=C4c3ccco3)c3ccc2[nH]3)cc1 : ____
744

Reported absorption maximum for O=Cc1ccc(C#CC(C#Cc2ccc(C=O)s2)=Cc2ccc(C=C(C#Cc3ccc(C=O)s3)C#Cc3ccc(C=O)s3)s2)s1 : what is it?
524

Bench note: what absorption maximum did CCCCCCC(CCCCCC)N1C(=O)c2cccc3c(-c4ccccc4)ccc(c23)C1=O show?
355.4

What value of absorption maximum has been reported for the following molecule? c1ccc(-c2ccnc(-c3ccccc3)n2)cc1
278

Look up absorption maximum for this molecule: CCC1=C(C)C(=O)n2c1cc1c(C)c(CC)c(C)n1c2=O
432

Fill in: absorption maximum of CN(C)c1ccc(C#Cc2ccc(C#Cc3ccc(C#Cc4ccccc4C#N)cc3C#N)cc2C#N)cc1 is ___
425

----------
- Test Name: solvent given as SMILES
- Setup Conditions: in CC#N
Entries annotated with measured absorption maximum
Give a bare numeral; the unit nm is implied.

COc1ccc(-c2c3ccccc3c3n2[B-](F)(F)[N+]2=Cc4c5ccccc5c(-c5ccc(OC)cc5)n4[B-](F)(F)[N+]2=C3)cc1 : 561
Clc1ccc(-c2nc3ccccc3n2-c2ccccc2)cc1 : 295

Data request, read-out absorption maximum, for CCC1=C(C)C2=C(c3cc(C4=C5C(C)=C(CC)C(C)=[N+]5[B-](F)(F)n5c(C)c(CC)c(C)c54)cc(C4=C5C(C)=C(CC)C(C)=[N+]5[B-](F)(F)n5c(C)c(CC)c(C)c54)c3)c3c(C)c(CC)c(C)n3[B-](F)(F)[N+]2=C1C
531

Which absorption maximum reading was recorded for the compound CCC/N=C/c1cc2ccc(N(C)C)cc2cc1OC ?
369

Data provenance: the Deep4Chem optical property database
